- targetOrSystem: human collagen type I (acid soluble, extracted from placenta, Sigma C7774) (human) (UniProt P02452)
- Sequence (P02452 162-1218 limits assumed, chain 1 of 2): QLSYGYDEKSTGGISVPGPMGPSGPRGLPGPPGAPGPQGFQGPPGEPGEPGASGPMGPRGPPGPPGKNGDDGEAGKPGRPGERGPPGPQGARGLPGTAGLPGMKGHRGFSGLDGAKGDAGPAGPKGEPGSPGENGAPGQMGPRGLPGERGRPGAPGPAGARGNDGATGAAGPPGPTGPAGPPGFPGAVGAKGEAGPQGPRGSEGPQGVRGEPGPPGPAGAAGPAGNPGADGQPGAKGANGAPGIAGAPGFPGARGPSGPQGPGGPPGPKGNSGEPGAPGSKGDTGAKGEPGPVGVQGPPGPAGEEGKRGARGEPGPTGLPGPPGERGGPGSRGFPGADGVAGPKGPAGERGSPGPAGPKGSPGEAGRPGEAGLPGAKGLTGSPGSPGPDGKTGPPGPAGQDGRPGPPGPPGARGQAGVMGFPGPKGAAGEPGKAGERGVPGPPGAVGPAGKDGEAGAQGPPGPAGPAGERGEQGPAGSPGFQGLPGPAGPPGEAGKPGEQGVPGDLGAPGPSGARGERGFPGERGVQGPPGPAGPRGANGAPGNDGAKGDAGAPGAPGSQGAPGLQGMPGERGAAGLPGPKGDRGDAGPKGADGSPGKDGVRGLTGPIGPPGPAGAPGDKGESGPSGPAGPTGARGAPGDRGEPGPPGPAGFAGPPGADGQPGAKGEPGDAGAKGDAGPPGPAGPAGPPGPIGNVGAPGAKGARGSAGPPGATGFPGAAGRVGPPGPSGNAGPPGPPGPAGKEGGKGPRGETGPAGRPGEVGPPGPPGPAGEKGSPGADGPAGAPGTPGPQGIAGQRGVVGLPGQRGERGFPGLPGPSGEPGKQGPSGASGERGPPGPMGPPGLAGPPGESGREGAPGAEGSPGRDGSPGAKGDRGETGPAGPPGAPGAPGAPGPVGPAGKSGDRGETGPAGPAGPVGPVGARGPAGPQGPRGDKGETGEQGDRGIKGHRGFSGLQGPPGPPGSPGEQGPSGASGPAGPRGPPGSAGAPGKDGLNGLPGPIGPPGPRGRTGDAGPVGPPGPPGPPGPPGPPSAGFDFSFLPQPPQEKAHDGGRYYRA
- Sequence (P08123 80-1119 limits assumed, chain 2 of 2, further chain): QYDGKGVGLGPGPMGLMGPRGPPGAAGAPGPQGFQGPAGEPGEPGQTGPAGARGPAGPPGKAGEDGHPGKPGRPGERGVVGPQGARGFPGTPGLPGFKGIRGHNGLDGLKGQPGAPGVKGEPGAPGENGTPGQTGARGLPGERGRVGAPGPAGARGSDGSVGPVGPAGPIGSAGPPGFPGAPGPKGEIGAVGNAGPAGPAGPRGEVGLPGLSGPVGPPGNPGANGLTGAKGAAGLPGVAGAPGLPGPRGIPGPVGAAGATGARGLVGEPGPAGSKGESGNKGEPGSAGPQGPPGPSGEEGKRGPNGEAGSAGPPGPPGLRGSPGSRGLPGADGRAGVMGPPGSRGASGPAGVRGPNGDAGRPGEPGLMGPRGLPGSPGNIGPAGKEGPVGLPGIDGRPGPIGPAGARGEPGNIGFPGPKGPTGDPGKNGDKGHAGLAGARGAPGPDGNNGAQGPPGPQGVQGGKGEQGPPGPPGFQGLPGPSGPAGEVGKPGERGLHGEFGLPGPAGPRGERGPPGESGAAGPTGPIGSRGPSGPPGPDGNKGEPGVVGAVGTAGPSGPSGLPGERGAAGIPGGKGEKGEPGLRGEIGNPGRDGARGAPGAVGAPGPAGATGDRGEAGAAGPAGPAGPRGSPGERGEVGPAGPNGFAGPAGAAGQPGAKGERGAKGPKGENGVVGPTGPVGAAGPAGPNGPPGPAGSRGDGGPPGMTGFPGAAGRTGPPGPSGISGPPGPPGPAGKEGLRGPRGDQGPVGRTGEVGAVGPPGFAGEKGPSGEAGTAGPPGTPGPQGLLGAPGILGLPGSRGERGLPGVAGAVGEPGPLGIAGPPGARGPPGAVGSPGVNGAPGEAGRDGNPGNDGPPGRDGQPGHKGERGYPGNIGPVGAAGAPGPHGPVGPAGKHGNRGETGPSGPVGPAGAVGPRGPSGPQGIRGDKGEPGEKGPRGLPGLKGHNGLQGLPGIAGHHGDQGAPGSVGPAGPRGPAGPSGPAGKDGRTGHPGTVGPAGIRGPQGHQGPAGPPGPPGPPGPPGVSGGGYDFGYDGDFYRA
- methodSummary: dried collagen assay, 5 uM each
Bridge positions count the residues as written; N and C are the ends. GdDTPA‑thiourea = GdT is GdDTPA-thiourea (Gd-DTPA chelate attached through a thiourea)
measureName: Human binding (%)

{GdDTPA‑thiourea}-GQWHCTTRFPHHYCLYGK(GdDTPA‑thiourea)-NH2 (disulfide 5-14) [Compound ID 807] = 48

1: GQWHCTTRFPHHTCLYG [Compound ID 905]
2: PWTCSGDEYAWHCNYE [Compound ID 824]
Task: Exercise: compare 1 and 2 ; which one has the greater Human binding? Give the label under which the chosen entry appears.
Result: 2

A: GKWHCYTKFPHHYCVYYY [Compound ID 1010]
B: GQWHCTTRFPHHRCLYG [Compound ID 902]
C: GKWHCTTYFPHHVCLYG [Compound ID 965]
Task: Exam item: list the entries in increasing order of Human binding. Kindly provide the labels arranged according to the requested ordering.
Result: B, C, A
(B: 7%, C: 26%, A: 92%)

Cited source: patent US20080058636A1
